Target: Aromatase (Homo sapiens) (UniProt P11511)
Sequence (P11511 whole entry, looked up): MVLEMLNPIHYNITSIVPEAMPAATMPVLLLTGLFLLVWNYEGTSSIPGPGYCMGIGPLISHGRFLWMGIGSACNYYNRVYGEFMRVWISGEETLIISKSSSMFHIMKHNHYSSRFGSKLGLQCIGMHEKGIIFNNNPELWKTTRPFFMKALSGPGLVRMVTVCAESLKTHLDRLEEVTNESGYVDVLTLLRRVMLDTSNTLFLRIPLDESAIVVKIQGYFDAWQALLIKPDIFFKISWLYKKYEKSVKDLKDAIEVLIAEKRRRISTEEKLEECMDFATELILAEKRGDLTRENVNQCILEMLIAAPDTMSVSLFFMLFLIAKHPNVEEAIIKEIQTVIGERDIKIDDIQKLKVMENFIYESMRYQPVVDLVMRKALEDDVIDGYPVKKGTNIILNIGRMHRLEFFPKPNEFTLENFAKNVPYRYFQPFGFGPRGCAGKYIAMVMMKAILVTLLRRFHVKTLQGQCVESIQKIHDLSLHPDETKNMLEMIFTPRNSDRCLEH
Assay: qHTS assay to identify aromatase inhibitors (AID 743083); further: nearly all actives have a fitted effect of over 55% in size
Details: MCF-7 aro ERE, testosterone-driven ERE luciferase, 24 h; series mostly up to 70.3 µM
Records with an inconclusive call do not appear. Activity calls are given as the source filed them. The call rests on the fitted dose curve; in most records, active means well fitted inhibition curve with a large enough effect in the repeat runs; inconclusive means weak or mixed curves; inactive means no such curve, though single readings can be large or run the other way.
Pick one and only one: y = active, n = inactive

Examples with answers:
| COMPOUND | CLASS_LABEL |
| --- | --- |
| CC1(C)C(=O)NC(=O)NC1=O | n |
| O=C(CCN1CC1)OCC(CO)(COC(=O)CCN1CC1)COC(=O)CCN1CC1 | n |
| CC(C1CC1)C(O)(Cn1cncn1)c1ccc(Cl)cc1 (stereo not drawn) | y |
| OC(c1ccccc1)(c1ccccc1)C1CCNCC1 | n |
| COC(C)(C)C | n |

Hi, do you know how Cc1cc(C)nc(Nc2ccccc2)n1 came out in this test?
n

Entry c1cc[c]([Hg][c]2ccccc2)cc1 please
n

Entry c1cc2c(c(N3CCNCC3)c1)OCCO2 please
n

Entry ClCC(Cl)Cl please
n

Entry C=C(C)[C@@H]1CC=C(C=O)CC1 please
n

---

Assay: qHTS assay to identify small molecule antagonists of the farnesoid-X-receptor (FXR) signaling pathway - cell viability counter screen (AID 743221); further: nearly all actives have a fitted effect of over 50% in size
Settings: FXR-bla HEK293T viability, CellTiter-Glo luminescence, 16 h; series mostly up to 62.6 µM
Records with an inconclusive call do not appear. The source made the active and inactive calls. Calls follow the shape of the dose curve; as a rule, active = well fitted cell-killing curve with a large enough effect in the repeat runs (not every such curve was filed as active); inconclusive = weak or mixed curves, or effect the other way; inactive = no such curve, though single readings can be large or run the other way.
PROPERTY_MEASURED: outcome

Please review the following examples before continuing.
| MOLECULE | outcome |
| --- | --- |
| CC(C)NCC(O)c1ccc(N)c(C#N)c1 (centres undefined) | inactive |
| CN1CCC(O)(c2ccc(F)cc2)C(C(=O)c2ccc(F)cc2)C1 (centres undefined) | inactive |
| O=[N+]([O-])c1ccc(CBr)cc1 | inactive |
| CCOC(=O)C1(c2ccccc2)CCN(CCc2ccc(N)cc2)CC1 | inactive |
| O=[N+]([O-])c1cccc2c([N+](=O)[O-])cccc12 | inactive |
| CCN(CC)C(=O)[C@@H]1C=C2c3cccc4[nH]cc(c34)C[C@H]2N(C)C1 | inactive |
| CCS(=O)(=O)C(C)(C)S(=O)(=O)CC | inactive |
| COc1cc2c(cc1OC)[C@@]13CCN4CC5=CCO[C@H]6CC(=O)N2[C@H]1[C@H]6[C@H]5C[C@H]43 | inactive |

Please report the recorded outcome for Clc1cccc(N2CCNCC2)c1 .
inactive

Entry COc1cc(OC)nc(Sc2cccc(Cl)c2C(=O)O)n1 please
inactive

Entry C#CCN1C(=O)COc2cc(F)c(N3C(=O)C4=C(CCCC4)C3=O)cc21 please
inactive

Entry CCCCOC(=O)c1ccccc1N please
inactive

Entry CC(C(O)c1ccccc1)N(C)C/C=C/c1ccccc1 (centres undefined) please
inactive

Entry CCC(=O)c1ccccc1 please
inactive

Entry CC(=O)Nc1cc([As](=O)(O)O)ccc1O please
inactive

Entry CCOP(=S)(OCC)Oc1ncn(-c2ccccc2)n1 please
inactive

---

Assay: Human pregnane X receptor (PXR) small molecule agonists, qHTS cell viability counter screen (AID 1346977); further: nearly all actives have a fitted effect of over 50% in size
Settings: PXR-Luc HepG2 viability, CellTiter-Fluor, 24 h; series mostly up to 92.4 µM
Inconclusive results are not listed. Active and inactive are the calls of the source. Calls come from the whole dose curve; as a rule, active = well fitted cell-killing curve with a large enough effect in the repeat runs; inconclusive = weak or mixed curves, or effect the other way; inactive = flat fitted curve, though single readings scatter.
Pick one and only one: 1.0 for active, 0.0 for inactive

Examples with answers:
| COMPOUND | CLASS_LABEL |
| --- | --- |
| O=[N+]([O-])c1ccc(CBr)cc1 | 0.0 |
| COc1cccc2c1cc([N+](=O)[O-])c1c(C(=O)O)cc3c(c12)OCO3 | 1.0 |
| CCOP(=S)(OCC)Oc1nc(Cl)n(C(C)C)n1 | 0.0 |

Hi, do you know how Cc1coc2c1CCC(C)C2 (stereo not given) came out in this test?
0.0

Entry CNC(=O)Oc1ccc(N(C)C)c(C)c1 please
0.0
